# Test system: JAR;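 also: growth inhibition of human JAR cells determined with a cell viability assay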
# MEASUREMENT_DESCRIPTION: cells
# Assay type: functional, cell-based
# EXPERIMENTAL_PARAMETERS: Homo sapiens
# Description: SANGER: Inhibition of human JAR cell growth in a cell viability assay.
pIC50: −log10 of the molar value.
MEASUREMENT_LABEL: pIC50

Lookup: Consider the molecule N#C/C(=C1/Nc2ccccc2S1)c1ccnc(NCCc2cccnc2)n1 . State its measured pIC50.
Found: < 5.10

Lookup: Consider the molecule CC(=O)c1c(C)c2cnc(Nc3ccc(N4CCNCC4)cn3)nc2n(C2CCCC2)c1=O . State its measured pIC50.
Found: < 5.40

Lookup: Consider the molecule COc1cc(C)c(Sc2cnc(NC(=O)c3ccc(CNC(C)C(C)(C)C)cc3)s2)cc1C(=O)N1CCN(C(C)=O)CC1 (stereo not given) . State its measured pIC50.
Found: < 4.99

Lookup: Consider the molecule CCCS(=O)(=O)Nc1ccc(F)c(C(=O)c2c[nH]c3ncc(Cl)cc23)c1F . State its measured pIC50.
Found: < 5.00

Lookup: Consider the molecule O=c1[nH]c2ccccc2n1C1CCN(Cc2ccc(-c3nc4cc5[nH]cnc5cc4nc3-c3ccccc3)cc2)CC1 . State its measured pIC50.
Found: < 5.59

All figures here come from ChEMBL document CHEMBL1201861.
